These entries and their values trace back to paper PMC9170038.

Target: MS2 coat protein, dlFG mutant (Escherichia phage MS2, UniProt P03612, del68-81insG)
Test: 4 mM Mg2+; FMN 200 uM; RNA-MaP array; 100 mM Tris-HCl pH 7.5, 80 mM KCl, 4 mM MgCl2, 0.1 mg/mL BSA, 1 mM DTT, 0.01 mg/mL yeast tRNA, 0.01% Tween-20; protein 1.5 nM to 3 uM; 37 C (Table S3)
Details: chain copies: 2; label: tethered by stalled RNA polymerase
measurement_label: Kd (nM)
One number for each entry, in nM.

Asked: Quick one: Kd for Eterna 6430193 (Small Loop Exclusion NG 3) (ssRNA) RNA: GUCGAAACCAUACUGGUCGACGGUCAGGAUAUACAUGAGGAUCACCCAUGUGCUAUUGAUACUAUGUAGAAGGGACCCACCGCA ?
Given back: 24.4
